system_tested: T1, Human PD-1 expressed on CHO-K1 cells (CHO-K1/hPD-1) (human, UniProt Q15116 25-288)
T1 construct: whole, on cells; also called CHO-K1 cells overexpressing human PD-1
procedure_summary: FACS, CHO-K1/hPD-1 cells

binder | EC50
PR000675 (antibody, human IgG4 S228P, kappa, V domains shown, Fully human recombinant H2L2 antibody, human IgG4, kappa light chain; also called 4004_19G8F2) VH: EVQLLESGGGLVQPGGSLRLSCVDSGFTFSSYAMTWVRQAPGKGLEWVSGISGSGYSTYYADSVKGRFTISRDNSKKTLYLQMNSLRAEDTAVYYCAELSLDYWGQGTLVTVSS VL: EIVLTQSPATLSLSPGERATLSCRASQSVSRYLAWYQQKPGQAPRLLMHDAANRATGLPARFNGSGSGTDFTLTISSLEPEDFAVYYCQQRNNWPLTFGGGTKVEIKR | 7.91 nM
PR005147 (VHH, Monovalent single-domain (VH) variant of PR002481 with Flag-6His tag) VHH: EVQLVETGGGLIQPGGSLRLSCAASGFNVSYYYMSWVRQAPGKGREWVSIIDKAGSTYYGASVKGRFTISRDNSKNRLYLQMNSLRAEDTAMYYCARATMVREKNGYNYPFNYWGQGTLVTVSS | 382 nM
